compounds and their reported EC50
# System: DU-145
# ASSAY_NOTES: Cytotoxicity against human DU145 cells after 72 hrs by MTT assay
# Type: functional
# SETTINGS: DU-145, 72 h, read-out: ED50 (the source's name)

Read the entry CCOc1c(-c2occ(C)c2C(=O)OC)ccc2c(CC)cccc12 and write its reported EC50.
1.9 µg/mL

Read off the recorded EC50 for CCOc1c(-c2occ(C)c2COC(C)=O)ccc2c(CC)cccc12
> 10 µg/mL

Using known records, supply EC50 for CCc1cccc2c(OC)c(-c3occ(C)c3CBr)ccc12
> 10 µg/mL

Alright, here's another compound for you.
Indicate the recorded EC50 value for this compound: CCc1cccc2c(OC)c(-c3occ(C)c3COCC(F)(F)F)ccc12
5.7 µg/mL

====

As shown below, each of these molecules has a reported EC50 value.
# Test system: DU-145
# ASSAY_NOTES: Cytotoxicity against human DU145 cells after 72 hrs by MTT assay
# Type: functional
# SETTINGS: DU-145, 72 h, read-out: ED50 (the source's name)

Before answering, review these 2 worked examples.
In one line, give reported EC50 of the entry CCc1cccc2c(OC)c(-c3occ(C)c3CO)ccc12 .
7.2 µg/mL

For CCc1cccc2c(OC)c(-c3occ(C)c3C(=O)NC)ccc12 , write its EC50.
> 10 µg/mL

---
Quick one: give measured EC50 for CCc1cccc2c(OC(C)=O)c(-c3occ(C)c3COC(C)=O)ccc12
> 10 µg/mL

State its EC50: CCOc1c(-c2occ(C)c2CO)ccc2c(CC)cccc12
> 10 µg/mL

Determine from records and report EC50 for CCOc1c(-c2occ(C)c2C(=O)O)ccc2c(CC)cccc12
> 10 µg/mL

Output EC50 of CCc1cccc2c(OC)c(-c3occ(C)c3C(=O)OC)ccc12
2.2 µg/mL

Give the reported EC50 for this molecule. CCOC(=O)c1c(C)coc1-c1ccc2c(CC)cccc2c1OC
2.2 µg/mL

// fetch EC50 given entry CCc1cccc2c(OC)c(-c3occ(C)c3COC)ccc12
> 10 µg/mL

Please report EC50 for the following molecule: CCOCc1c(C)coc1-c1ccc2c(CC)cccc2c1OC
> 10 µg/mL

====

# Tested on: ZR-75-1
# ASSAY_NOTES: Cytotoxicity against human ZR-75-1 cells after 72 hrs by MTT assay
# Format: functional
# SETTINGS: ZR-75-1, 72 h, read-out: ED50 (the source's name)
The threshold is 2 mg/L. Values of EC50 beneath it are tagged class 1; values meeting or exceeding it are tagged class 0.

# check: EC50 < 2 mg/L for CCc1cccc2c(OC)c(-c3occ(C)c3COC(C)=O)ccc12
class 0

API: the following record is the query input.
Is EC50 strictly under 2 mg/L for the entry CCOc1c(-c2occ(C)c2CO)ccc2c(CC)cccc12 ?
class 1

====

Items are presented alongside their recorded EC50.
# System: DU-145
# ASSAY_NOTES: Cytotoxicity against human DU145 cells after 72 hrs by MTT assay
# Assay type: functional
# SETTINGS: DU-145, 72 h, read-out: ED50 (the source's name)

In the examples that follow, each entry is paired with its recorded EC50.
Return EC50 for the following molecule: CCc1cccc2c(OC)c(-c3occ(C)c3C(=S)OC)ccc12
5.7 µg/mL

Tell me EC50 reported for CCc1cccc2c(OC)c(-c3occ(C)c3C(=O)On3nnc4ccccc43)ccc12
> 10 µg/mL

Read off the recorded EC50 for CCCOC(=O)c1c(C)coc1-c1ccc2c(CC)cccc2c1OC
> 10 µg/mL

Give a short answer stating reported EC50 for CCc1cccc2c(OC)c(-c3occ(C)c3COC(=O)CCN(CC)CC)ccc12 .
> 10 µg/mL

Tell me EC50 reported for CCOc1c(-c2occ(C)c2COC)ccc2c(CC)cccc12
> 10 µg/mL

***
State its EC50: CCc1cccc2c(OC)c(-c3occ(C)c3COC(C)=O)ccc12
> 10 µg/mL

Provide measured EC50 value, entry: CCc1cccc2c(O)c(-c3occ(C)c3C(=O)O)ccc12
8.7 µg/mL
